Origin of the recorded values: ChEMBL document CHEMBL1201862

# Test system: U-251
# Procedure Details: NCI tumour cell line growth inhibition, 48 h
Activity calls are given as the source filed them. Cut-off read from the data, not from the text of the source: active = GI50 up to about 1.1 µM and inactive = higher.
Experimental Readout: GI50

# input System U-251. Read-out GI50. Item O=c1[nH]nc(Cc2ccccc2)n1Nc1ccccc1 . Report value.
# output > 100 µM (inactive)

# input System U-251. Read-out GI50. Item NC(=O)[N+](=CC(=S)Nc1ccccc1Cl)C(N)=O . Report value.
# output > 100 µM (inactive)

# input System U-251. Read-out GI50. Item CC(C)(C)OC(=O)N(CCCN)CCCCN(CCCN)C(=O)OC(C)(C)C . Report value.
# output > 100 µM (inactive)

# input System U-251. Read-out GI50. Item NC1C/C(=N\O)c2c(I)sc(I)c21 (stereo unspecified) . Report value.
# output 18.3 µM (inactive)

# input System U-251. Read-out GI50. Item COC(=O)/C(=N\O)C(C(=O)C=C(C)C)C(=O)C(=O)Nc1ccccc1C (stereo unspecified) . Report value.
# output > 100 µM (inactive)

# input System U-251. Read-out GI50. Item O=C(NCCN1C(=O)CN=C(c2ccc(Cl)cc2)c2cc(Cl)ccc21)OCc1ccccc1 . Report value.
# output 15.2 µM (inactive)

# input System U-251. Read-out GI50. Item COc1ccc(P2(=S)SP(=S)(c3ccc(Cl)cc3)S2)cc1 (stereo unspecified) . Report value.
# output > 100 µM (inactive)

# input System U-251. Read-out GI50. Item Cc1nc2c(O)cc3c4c(=O)n(C)c(=O)n(C)c4n(Cc4ccccc4)c3c2nc1C . Report value.
# output 18.3 µM (inactive)

# input System U-251. Read-out GI50. Item Oc1ccc(-c2nc3ccc(Cl)cc3s2)cc1 . Report value.
# output 19.7 µM (inactive)

# input System U-251. Read-out GI50. Item CSC(SC)=C(C#N)C(=O)Nc1ccc(C)cc1 . Report value.
# output > 100 µM (inactive)

# input System U-251. Read-out GI50. Item COc1ccc(C(=O)C#Cc2cn(C3CC(O)C(CO)O3)c(=O)[nH]c2=O)cc1 (stereo unspecified) . Report value.
# output > 100 µM (inactive)
